Exercise: for every item that follows, state its recorded clearance.
- measurement.protocol: Pharmacokinetic studies in male CD-1 mice (plasma, IV and PO)
- Type: in vivo, mouse
- test.parameters: male, CD-1, plasma; mouse, IV 2 mg/kg; read-out: CI(mL/min/kg), compounds clearance following IV administration
One number for each entry, in mL/min/kg.

Before answering, review these 3 worked examples.
• CO[C@H]1C[C@@H]2CC[C@@H](C)[C@@](O)(O2)C(=O)C(=O)N2CCCC[C@H]2C(=O)O[C@H]([C@H](C)C[C@@H]2CC[C@@H](OCCO)[C@H](OC)C2)CC(=O)[C@H](C)/C=C(\C)[C@@H](O)[C@@H](OC)C(=O)[C@H](C)C[C@H](C)/C=C/C=C/C=C/1C [RAD001, everolimus, reference compound] = 0.934
• CO[C@@H]1C[C@H](C[C@@H](C)[C@@H]2CC[C@H](C)/C=C(\C)[C@@H](O)[C@@H](OC)C(=O)[C@H](C)C[C@H](C)/C=C/C=C/C=C(\C)C(Nc3cnon3)C[C@@H]3CC[C@@H](C)[C@@](O)(O3)C(=O)C(=O)N3CCCCC3C(=O)O2)CC[C@H]1O (stereo partly shown) = 1.13
• CO[C@@H]1CC(C[C@@H](C)[C@@H]2CC[C@H](C)/C=C(\C)[C@@H](O)[C@@H](OC)C(=O)[C@H](C)C[C@H](C)/C=C/C=C/C=C(\C)C(Nc3ccccc3)CC3CC[C@@H](C)[C@@](O)(O3)C(=O)C(=O)N3CCCC[C@H]3C(=O)O2)CC[C@H]1O (stereo partly shown) = 2.31

Prompt line: Quick check: clearance of COCCN(c1ccccc1)C1C[C@@H]2CC[C@@H](C)[C@@](O)(O2)C(=O)C(=O)N2CCCC[C@H]2C(=O)OC([C@H](C)CC2CC[C@@H](O)C(OC)C2)CC[C@H](C)/C=C(\C)C(O)C(OC)C(=O)[C@H](C)C[C@H](C)/C=C/C=C/C=C/1C (stereo partly shown) ?
Response line: 0.176

* * *

- measurement.protocol: In vitro microsomal metabolic stability, CD-1 mouse liver microsomes
- Type: in vitro ADME
- test.parameters: CD-1, pH 7.2; Mouse liver microsomes, 1 μM, 0.5 mg/ml protein, NADPH
attribute.measured: half-life at 1 µM

Before answering, review these 2 worked examples.
- CO[C@H]1C[C@@H]2CC[C@@H](C)[C@@](O)(O2)C(=O)C(=O)N2CCCC[C@H]2C(=O)O[C@H]([C@H](C)C[C@@H]2CC[C@@H](OCCO)[C@H](OC)C2)CC(=O)[C@H](C)/C=C(\C)[C@@H](O)[C@@H](OC)C(=O)[C@H](C)C[C@H](C)/C=C/C=C/C=C/1C [RAD001, everolimus, reference compound]: 1.19 h
- CO[C@@H]1C[C@H](C[C@@H](C)[C@@H]2CC[C@H](C)/C=C(\C)[C@@H](O)[C@@H](OC)C(=O)[C@H](C)C[C@H](C)/C=C/C=C/C=C(\C)C(Nc3ccc(Cl)cc3)C[C@@H]3CC[C@@H](C)[C@@](O)(O3)C(=O)C(=O)N3CCCCC3C(=O)O2)CC[C@H]1O (stereo partly drawn): > 2.42 h

Consider the additional compound presented here.
Prompt line: Quick check: half-life at 1 µM of CO[C@@H]1C[C@H](C[C@@H](C)[C@@H]2CC[C@H](C)/C=C(\C)[C@@H](O)[C@@H](OC)C(=O)[C@H](C)C[C@H](C)/C=C/C=C/C=C(\C)C(Nc3cccc(C)c3)C[C@@H]3CC[C@@H](C)[C@@](O)(O3)C(=O)C(=O)N3CCCCC3C(=O)O2)CC[C@H]1O (stereo partly drawn) ?
Response line: > 2.42 h

* * *

- measurement.protocol: In vitro microsomal metabolic stability, CD-1 mouse liver microsomes
- Format: in vitro ADME
- test.parameters: Mouse liver microsomes, with NADPH, 60 min
attribute.measured: Remaining (T = 60 min)

- CO[C@@H]1CC(C[C@@H](C)[C@@H]2CC[C@H](C)/C=C(\C)[C@@H](O)[C@@H](OC)C(=O)[C@H](C)C[C@H](C)/C=C/C=C/C=C(\C)C(Nc3cncc(C)n3)CC3CC[C@@H](C)[C@@](O)(O3)C(=O)C(=O)N3CCCC[C@H]3C(=O)O2)CC[C@H]1O (stereo partly drawn) [Compound 28]: 59.40%
- CO[C@@H]1C[C@H](C[C@@H](C)[C@@H]2CC[C@H](C)/C=C(\C)[C@@H](O)[C@@H](OC)C(=O)[C@H](C)C[C@H](C)/C=C/C=C/C=C(\C)C(Nc3cnon3)C[C@@H]3CC[C@@H](C)[C@@](O)(O3)C(=O)C(=O)N3CCCCC3C(=O)O2)CC[C@H]1O (stereo partly drawn) [Compound 45]: 64.30%

Consider the additional compound presented here.
Prompt line: Quick check: Remaining (T = 60 min) of CO[C@H]1C[C@@H]2CC[C@@H](C)[C@@](O)(O2)C(=O)C(=O)N2CCCC[C@H]2C(=O)O[C@H]([C@H](C)C[C@@H]2CC[C@@H](OCCO)[C@H](OC)C2)CC(=O)[C@H](C)/C=C(\C)[C@@H](O)[C@@H](OC)C(=O)[C@H](C)C[C@H](C)/C=C/C=C/C=C/1C [RAD001, everolimus, reference compound] ?
Response line: 56%

* * *

- measurement.protocol: In vitro microsomal metabolic stability, human liver microsomes
- Assay type: in vitro ADME
- test.parameters: Human liver microsomes, with NADPH, 60 min
Exercise: for every item that follows, state its recorded Remaining (T = 60 min).
Numbers only, in %.

- CO[C@@H]1C[C@H](C[C@@H](C)[C@@H]2CC[C@H](C)/C=C(\C)[C@@H](O)[C@@H](OC)C(=O)[C@H](C)C[C@H](C)/C=C/C=C/C=C(\C)C(Nc3ccsc3)C[C@@H]3CC[C@@H](C)[C@@](O)(O3)C(=O)C(=O)N3CCCCC3C(=O)O2)CC[C@H]1O (stereo partly shown): 6.6
- CO[C@@H]1CC(C[C@@H](C)[C@@H]2CC[C@H](C)/C=C(\C)[C@@H](O)[C@@H](OC)C(=O)[C@H](C)C[C@H](C)/C=C/C=C/C=C(\C)C(Nc3ccccc3)CC3CC[C@@H](C)[C@@](O)(O3)C(=O)C(=O)N3CCCC[C@H]3C(=O)O2)CC[C@H]1O (stereo partly shown): 6.60

Take each entry in turn and give its Remaining (T = 60 min).
1. COc1cccc(NC2C[C@@H]3CC[C@@H](C)[C@@](O)(O3)C(=O)C(=O)N3CCCCC3C(=O)O[C@H]([C@H](C)C[C@@H]3CC[C@@H](O)[C@H](OC)C3)CC[C@H](C)/C=C(\C)[C@@H](O)[C@@H](OC)C(=O)[C@H](C)C[C@H](C)/C=C/C=C/C=C/2C)c1 (stereo partly shown)
2. CO[C@H]1C[C@@H]2CC[C@@H](C)[C@@](O)(O2)C(=O)C(=O)N2CCCC[C@H]2C(=O)O[C@H]([C@H](C)C[C@@H]2CC[C@@H](O)[C@H](OC)C2)CC[C@H](C)/C=C(\C)[C@@H](O)[C@@H](OC)C(=O)[C@H](C)C[C@H](C)/C=C/C=C/C=C/1C [32-Deoxo Rapamycin, 32-deoxorapamycin, reference compound]

Response line:
1. 7.50
2. 0.00

* * *

Exercise: for every item that follows, state its recorded half-life at 1 µM.
- measurement.protocol: In vitro microsomal metabolic stability, human liver microsomes
- Format: in vitro ADME
- test.parameters: pH 7.2; Human liver microsomes, 1 μM, 0.5 mg/ml protein, NADPH
One number for each entry, in min.

• CO[C@@H]1C[C@H](C[C@@H](C)[C@@H]2CC[C@H](C)/C=C(\C)[C@@H](O)[C@@H](OC)C(=O)[C@H](C)C[C@H](C)/C=C/C=C/C=C(\C)C(Nc3cccc(OC(F)(F)F)c3)C[C@@H]3CC[C@@H](C)[C@@](O)(O3)C(=O)C(=O)N3CCCCC3C(=O)O2)CC[C@H]1O (stereo partly shown) = 69.5
• CO[C@@H]1C[C@H](C[C@@H](C)[C@@H]2CC[C@H](C)/C=C(\C)[C@@H](O)[C@@H](OC)C(=O)[C@H](C)C[C@H](C)/C=C/C=C/C=C(\C)C(Nc3cccc(C)c3)C[C@@H]3CC[C@@H](C)[C@@](O)(O3)C(=O)C(=O)N3CCCCC3C(=O)O2)CC[C@H]1O (stereo partly shown) = 22.8
• CO[C@@H]1CC(C[C@@H](C)[C@@H]2CC[C@H](C)/C=C(\C)[C@@H](O)[C@@H](OC)C(=O)[C@H](C)C[C@H](C)/C=C/C=C/C=C(\C)C(Nc3ccccc3)CC3CC[C@@H](C)[C@@](O)(O3)C(=O)C(=O)N3CCCC[C@H]3C(=O)O2)CC[C@H]1O (stereo partly shown) = 15.4

Consider the additional compound presented here.
Prompt line: Quick check: half-life at 1 µM of CO[C@@H]1C[C@H](C[C@@H](C)[C@@H]2CC[C@H](C)/C=C(\C)[C@@H](O)[C@@H](OC)C(=O)[C@H](C)C[C@H](C)/C=C/C=C/C=C(\C)C(Nc3ccc(C)cc3)C[C@@H]3CC[C@@H](C)[C@@](O)(O3)C(=O)C(=O)N3CCCCC3C(=O)O2)CC[C@H]1O (stereo partly shown) ?
Response line: 20.9
